Reported pIC50 is given for each of the following compounds.
System: Trypanosoma cruzi
Assay: GSK_TCAKS: pIC50 H2C9 Imaging: H9c2 Host Cardiomyocytes. […] Cells were then washed once with PBS before infection. T. cruzi trypomastigotes, collected at days 5 to 8 after infection from LLC-MK2 parasite infected cultures, were allowed to swim out for 4h at 37C from a centrifuged pellet (2,500 rpm/10 min/room temperature). Trypomastigotes were then collected and counted in a CASY Cell Counter. Trypomastigotes, in supplemented DMEM, were added to H9c2 cultures in a multiplicity of infection of 1 and incubated for 18 h. Cells were washed once with PBS before incubation of the infected H9c2 monolayer with trypsin (Life-Technologies) to detach cells from the flask. Cells were counted in a CASY Cell Counter using a 150 um capillary and their density set at 5 * 10^4 cells per mL in supplemented assay DMEM. Infected H9c2 were dispensed into 384-well poly-lysine coated assay plates at 50uL per well using a Multidrop Combi dispenser. After seeding them, the plates were incubated at 37C, 5% CO2 for 72h. Cultures were then fixed and stained by addition of 50 uL of a solution containing 8% formaldehyde and 4 uM DRAQ5 DNA dye (BioStatus, UK) per well. […] Five images were collected per well for reliable statistical analysis. Automated image analysis was performed with a script developed on Acapella High Content Imaging and Analysis Software (PerkinElmer). Output: Number of H9c2 Host Cardiomyocytes nuclei to determine drug-related cytotoxicity.
Type: functional, organism-based, Rattus norvegicus
Conditions: H9c2, 4 h
pIC50: −log10 of the molar value.

# annotated cases, reported pIC50 shown
>  <compound>
CCN(Cc1cccs1)C(=O)CSc1nnc(-c2ccc3c(c2)OCO3)o1

>  <pIC50>
< 4.30

$$$$
>  <compound>
Cn1nc([N+](=O)[O-])nc1Oc1ccc(C(=O)c2ccccc2)cc1

>  <pIC50>
< 4.30

$$$$
>  <compound>
O=C(NCc1ccc(-n2cccc2)cc1)c1nc(Cn2ccc([N+](=O)[O-])n2)no1

>  <pIC50>
< 4.30

$$$$
>  <compound>
COc1ccc(C(=O)N2CCC(Nc3cccnc3)C2)c(OC)n1 (stereo not given)

>  <pIC50>
< 4.30

$$$$
>  <compound>
O=C(CN1CCN(c2ccccn2)CC1)Nc1cc(S(=O)(=O)N2CCCCCC2)ccc1Cl

>  <pIC50>
< 4.30

$$$$

Which pIC50 is listed for CC(C)CC(=O)Nc1cc(C2CC2)nn1-c1nc2c(c(=O)[nH]1)CCCC2 ?
5.60

Which pIC50 is listed for Cn1nc(C(=O)N2CCc3ccccc32)c2c1CCS(=O)(=O)C2 ?
< 4.30

Which pIC50 is listed for Cc1cc(NC(=O)C2CCCCC2)n(-c2nc3c(c(=O)[nH]2)CCC3)n1 ?
5.70

Which pIC50 is listed for Cc1ccc2nc(N(Cc3cccnc3)C(=O)CCc3ccccc3)sc2c1 ?
< 4.30

Which pIC50 is listed for COc1ccc(-c2ccc3nnc(-c4ccc(O)c(OC)c4)n3c2)cn1 ?
< 4.30

---

System: Trypanosoma brucei brucei
Test: GSK_TCAKS: pIC50 Trypanosoma brucei viability assay using fluorescence intensity. Assay plates (1536-well) were prepared by dispensing 25nL of compound solution per well using an Echo acoustic dispenser (Labcyte).
Assay type: functional, organism-based
Settings: Lister 427, 2 h
Reported pIC50 is given for each of the following molecules.
Formally, pIC50 is defined as -log10 of the concentration c, with c in mol/L.

# annotated cases, reported pIC50 shown
>  <molecule>
O=c1ccn(-c2ccc([N+](=O)[O-])cc2Cl)c2ccc(F)cc12

>  <pIC50>
4.60

$$$$
>  <molecule>
O=C(N[C@H](CO)c1ccccc1)c1ccc(-c2c[nH]c3nccc(C(F)(F)F)c23)s1

>  <pIC50>
6.80

$$$$
>  <molecule>
O=C(c1cccc(Nc2ncc(-c3ccc4c(c3)OCO4)cn2)c1)N1CCSC1

>  <pIC50>
4.90

$$$$

Which pIC50 is listed for CCCN(Cc1ccc(OC)c(OC)c1)Cc1cc(=O)c2c(C)cc(C)cc2[nH]1 ?
4.60

Which pIC50 is listed for COCCn1cnc2cc(NC(=O)C3CCCCC3)cc(C(=O)N3CCc4sccc4C3)c21 ?
6.10

Which pIC50 is listed for O=C(NCC1CCCCN1C(=O)c1cccc2ccccc12)c1ccccc1 (stereo not given) ?
6.40

Which pIC50 is listed for Cc1ccc(C)c(CN2C(=O)NC3(CCc4ccccc43)C2=O)c1 (stereo not given) ?
6.30

Which pIC50 is listed for COc1ccc(Nc2nc(-c3ccccn3)cs2)c(OC)c1 ?
4.70

Which pIC50 is listed for O=C(CN(Cc1ccccn1)Cc1ccccn1)NCc1ccc2c(c1)OCO2 ?
5.20

---

Assay: GSK_TCAKS: pIC50 HepG2 human cell line viability assay using luminiscence. […] Seeding density was checked to ensure that new mono-layers were not more than 50% confluent at the time of harvesting. Cell suspension was added to 500 mL of the same medium at a final density of 1.2 * 10^5 cells/mL. This cell suspension was dispensed (25 uL, 3000 cells per well) into 384-well clear-bottom plates using a Multidrop Combi dispenser. Prior to addition of the cell suspension, the screening compounds (250 nL) were pre-dispensed into the plates with an Echo liquid handler. Plates were incubated for 48 h at 37C, 5% CO2. After incubation, plates equilibrated at room temperature for 30 min before proceeding to develop the luminescent signal. The signal developer, CellTiter-Glo Reagent, was allowed to equilibrate at room temperature for 30 min and added to the plates (25uL per well) using a Multidrop Combi dispenser. Plates were left for 10 min at room temperature for stabilization and then read using a ViewLux.
Type: toxicity, cell-based
measured parameter: IC50 at 48 h (µM)
Answer with a number only, understood to be in µM.

# annotated cases, reported IC50 at 48 h shown
>  <input smiles>
N#Cc1c(Oc2cccc(Cl)c2)cccc1[N+](=O)[O-]

>  <measured parameter>
IC50 at 48 h

>  <unit of measure>
µM

>  <measured result>
25.1

$$$$
>  <input smiles>
N#Cc1cccc(Nc2nccc(N3CCC(NS(=O)(=O)c4cccc(C#N)c4)CC3)n2)c1

>  <measured parameter>
IC50 at 48 h

>  <unit of measure>
µM

>  <measured result>
50.1

$$$$
>  <input smiles>
COc1ccc(NC(=O)c2ccc(NC(=O)CN(c3ccccc3C)S(C)(=O)=O)cc2)cc1

>  <measured parameter>
IC50 at 48 h

>  <unit of measure>
µM

>  <measured result>
39.8

$$$$
>  <input smiles>
CC(C)c1nn(-c2nc(N)nc(-c3ccccn3)n2)c(N)c1C1CCCCC1

>  <measured parameter>
IC50 at 48 h

>  <unit of measure>
µM

>  <measured result>
20

$$$$

Which IC50 at 48 h is listed for CNS(=O)(=O)c1ccccc1Nc1nc(Nc2cc(C)nn2C)ncc1Cl ?
3.98

Which IC50 at 48 h is listed for COc1cccc(Nc2cc(C)nc(-c3ccccn3)n2)c1 ?
50.1

---

System: NIH3T3
Experiment: GSK_TCAKS: pIC50 NIH 3T3 cell line viability assay using luminiscence. Tissue culture surface treated assay plates (1536-well) were used. […] The 100% cells survival control was determined exposing the host-cells to a 0.5% DMSO concentration, whereas the 100% toxicity control was achieved by seeding the cells in presence of Amphotericin B at 50uM. Plates were incubated for four days at 37C, 5% CO2. The assay readout was developed by addition of 5uL of CellTiter-Glo Reagent following the manufacturer's instructions. Luminiscence was measured using a ViewLux.
Type: functional, cell-based
Conditions: Mus musculus, NIH3T3, 96 h
Reported IC50 is given for each of the following compounds.
Answer with a number only, understood to be in µM.

>  <compound>
Cc1cc(Br)cc(C(=O)c2c(C(C)C)c(=O)[nH]c(=O)n2Cc2ccnc(N)c2)c1

>  <measured parameter>
IC50

>  <measured result>
15.8

$$$$

Which IC50 is listed for COc1ccc(-c2ccc3nnc(-c4ccc(O)c(OC)c4)n3c2)cn1 ?
50.1

Which IC50 is listed for O=C(NC(c1ccc(Cl)cc1)c1cnccn1)C1CCN(C(=O)Nc2cccc(C(F)(F)F)c2)CC1 (stereo unspecified) ?
39.8

Which IC50 is listed for CCCN1CCN(Cc2ccc(S(=O)(=O)Nc3cccc(C)c3)cc2)CC1 ?
25.1

---

Tested on: Trypanosoma cruzi
Assay: GSK_TCAKS: pIC50 Trypanosoma cruzi Imaging: Amastigotes/Cell. […] Cells were then washed once with PBS before infection. T. cruzi trypomastigotes, collected at days 5 to 8 after infection from LLC-MK2 parasite infected cultures, were allowed to swim out for 4h at 37C from a centrifuged pellet (2,500 rpm/10 min/room temperature). Trypomastigotes were then collected and counted in a CASY Cell Counter. Trypomastigotes, in supplemented DMEM, were added to H9c2 cultures in a multiplicity of infection of 1 and incubated for 18 h. Cells were washed once with PBS before incubation of the infected H9c2 monolayer with trypsin (Life-Technologies) to detach cells from the flask. Cells were counted in a CASY Cell Counter using a 150 um capillary and their density set at 5 * 10^4 cells per mL in supplemented assay DMEM. Infected H9c2 were dispensed into 384-well poly-lysine coated assay plates at 50uL per well using a Multidrop Combi dispenser. After seeding them, the plates were incubated at 37C, 5% CO2 for 72h. Cultures were then fixed and stained by addition of 50 uL of a solution containing 8% formaldehyde and 4 uM DRAQ5 DNA dye (BioStatus, UK) per well. […] Five images were collected per well for reliable statistical analysis. Automated image analysis was performed with a script developed on Acapella High Content Imaging and Analysis Software (PerkinElmer). Output: number of amastigotes per cell as infection level measurement.
Assay type: functional, organism-based, Rattus norvegicus
Details: H9c2, 4 h
measured parameter: log10(IC50) (log10 of the value in nM)
Use the decimal logarithm of IC50 (nM).

>  <molecule>
O=C(CC1(O)C(=O)N(Cc2cccs2)c2ccc(Br)cc21)c1cccnc1 (configuration not stated)

>  <log10(IC50)>
4.40

$$$$
>  <molecule>
Oc1cccnc1-c1nc(Cc2ccccc2)n[nH]1

>  <log10(IC50)>
3.80

$$$$
>  <molecule>
CC(C)(C)CC(=O)NCCc1csc(-c2ccc(F)cc2)n1

>  <log10(IC50)>
2.90

$$$$
>  <molecule>
COc1ccc(Cl)cc1CC(=O)Nc1nnc(-c2ccccn2)[nH]1

>  <log10(IC50)>
4.00

$$$$
>  <molecule>
CC(C)(C)CC(=O)NCc1noc(COc2ccccc2)n1

>  <log10(IC50)>
3.40

$$$$

Which log10(IC50) is listed for CN(CC1CCCO1)S(=O)(=O)c1ccc(C(=O)Nc2nc(-c3ccccn3)cs2)cc1 (configuration not stated) ?
3.10

Which log10(IC50) is listed for Cc1sc(C)c(C(F)(F)F)c1CNCCCNc1cc(=O)c2ccccc2[nH]1 ?
2.70

Which log10(IC50) is listed for COc1cc(Nc2nccc(Nc3onc(C)c3C)n2)cc(S(=O)(=O)C2CCOCC2)c1 ?
4.10

Which log10(IC50) is listed for COc1ccc(Nc2nc(N[C@H]3CC[C@H](O)CC3)ncc2Br)c(C(N)=O)c1 ?
3.30

Which log10(IC50) is listed for c1ccc(CNc2cccc3ccncc23)cc1 ?
3.70

Which log10(IC50) is listed for COc1cc(OC)cc(C(NS(=O)(=O)c2ccc(Cl)c(C(F)(F)F)c2)c2nccn2C)c1 (configuration not stated) ?
3.50

Which log10(IC50) is listed for O=C(Cn1cnc2c(-c3ccccc3)csc2c1=O)N1CCCCC1 ?
3.50

Which log10(IC50) is listed for N#Cc1cccc(Cc2cc(Nc3cc(C4CC4)[nH]n3)nc(N3CC[C@H]3C(N)=O)n2)c1 ?
3.00

Which log10(IC50) is listed for CCCCc1cc(Nc2cc(C3CCC3)[nH]n2)nc(N2CCC2C(N)=O)n1 (configuration not stated) ?
3.20

Which log10(IC50) is listed for CCN(CC)S(=O)(=O)c1ccc(Cn2nc(C(=O)Nc3ccncn3)c3ccccc32)cc1 ?
2.60

Which log10(IC50) is listed for CC(=O)NC1(c2ccccc2)CCN(CC(=O)Nc2ccccc2-c2ccccc2)CC1 ?
3.20

Which log10(IC50) is listed for Cn1c(CN2CCN(c3ncc(C(F)(F)F)cc3Cl)CC2)nc2ccncc21 ?
3.00

Which log10(IC50) is listed for Cc1cc(C)c(C#N)c(SCC(=O)c2ccc3c(c2)OCO3)n1 ?
2.60

Which log10(IC50) is listed for NC(=O)c1ncc(N[C@@H]2CCCNC2)nc1Nc1cccc(Cl)c1 ?
2.40

Which log10(IC50) is listed for O=S(=O)(c1cccc(CSc2nnc(-c3ccc4c(c3)OCO4)o2)c1)N1CCOCC1 ?
1.60

Which log10(IC50) is listed for Cc1nc2c(-c3cccs3)c(C)nn2c(NCCO)c1C ?
4.20

Which log10(IC50) is listed for O[C@H]1CC[C@H](Nc2nccc(-c3sc(C4CCOCC4)nc3-c3ccc(F)c(F)c3)n2)CC1 ?
2.30

Which log10(IC50) is listed for CCOc1cc(NCCCN2CCN(C)CC2)c2ncccc2c1 ?
3.00

Which log10(IC50) is listed for Cc1cccnc1CN1CCN(CCCOc2ccc(-c3ccc(C(N)=O)cc3)cc2)CC1 ?
2.60

Which log10(IC50) is listed for COc1ccc(OC)c(S(=O)(=O)N(Cc2c(F)cccc2F)[C@@H]2CCN(C#N)C2)c1 ?
3.80

Which log10(IC50) is listed for CN(C)S(=O)(=O)c1cccc(C(=O)Nc2nc(-c3ccccn3)cs2)c1 ?
3.00

Which log10(IC50) is listed for O=C(NCCc1csc(-c2ccc(F)cc2)n1)c1cccs1 ?
2.40

Every entry's value here was drawn from ChEMBL document CHEMBL3430912.
